Target: RORγt (Homo sapiens (Human))
Sequence (P51449 269-508): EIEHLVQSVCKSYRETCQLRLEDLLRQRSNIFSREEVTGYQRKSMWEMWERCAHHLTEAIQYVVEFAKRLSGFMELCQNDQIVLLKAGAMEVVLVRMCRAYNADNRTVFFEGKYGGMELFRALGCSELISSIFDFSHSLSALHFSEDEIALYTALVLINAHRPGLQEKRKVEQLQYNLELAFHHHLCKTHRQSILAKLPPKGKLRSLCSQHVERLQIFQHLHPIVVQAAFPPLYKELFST
Test: Gal4 ligand binding assay (RORγt Gal fusion luciferase reporter assay in HEK293T cells)
Details: RORγt inverse agonists in RORγt Gal fusion assay
Attribute: IC50

CCc1cc(CN2CCC3(CCS(=O)(=O)C3)C2)ccc1-c1ccc(C(O)(C(F)(F)F)C(F)(F)F)cc1 (stereo not shown); < 50 nM
CC(C)c1cc(CN2CC3(C2)CN(S(C)(=O)=O)C3)c(F)cc1-c1ccc(C(O)(C(F)(F)F)C(F)(F)F)cc1Cl; < 50 nM
CCc1c(F)c(CN2CC3(C2)CN(S(C)(=O)=O)C3)cc(F)c1-c1ccc(C(O)(C(F)(F)F)C(F)(F)F)cc1; < 50 nM
CCc1cc(CN2CC3(C2)CN(S(C)(=O)=O)C3)ncc1-c1ccc(C(O)(C(F)(F)F)C(F)(F)F)cc1C; < 50 nM
CCc1c(F)c(CN2CC3(C2)CN(S(C)(=O)=O)C3)cc(F)c1-c1ccc(C(O)(C(F)(F)F)C(F)(F)F)cc1C; < 50 nM
CS(=O)(=O)N1CC2(CN(Cc3ccc(-c4ccc(C(O)(C(F)(F)F)C(F)(F)F)cc4)c(C4CC4)c3)C2)C1; < 50 nM
CCc1cc(CN2CC3(C2)CN(S(C)(=O)=O)C3)ccc1-c1ccc(C(O)(C(F)(F)F)C(F)(F)F)cc1CC; < 50 nM
CCc1cc(CN2CC(CNS(C)(=O)=O)C2)ccc1-c1ccc(C(O)(C(F)(F)F)C(F)(F)F)cc1; > 250 nM

Endpoint output: IC50 of CC(C)c1cc(CN2CC3(C2)CN(S(C)(=O)=O)C3)cc(F)c1-c1ccc(C(O)(C(F)(F)F)C(F)(F)F)cc1 . Value?
< 50 nM

Which IC50 is reported for this molecule? CCc1cc(C(O)(C(F)(F)F)C(F)(F)F)ccc1-c1ccc(CN2CC3(C2)CN(S(C)(=O)=O)C3)cc1C
< 50 nM

Request the reported IC50 associated with CCc1cc(CN2CC3(CCN(C(=O)OC(C)(C)C)C3)C2)ccc1-c1ccc(C(O)(C(F)(F)F)C(F)(F)F)cc1
50 to 250 nM

Request the reported IC50 associated with COc1cc(CN2CC3(C2)CN(S(C)(=O)=O)C3)ccc1-c1ccc(C(O)(C(F)(F)F)C(F)(F)F)cc1C
< 50 nM

# IC50 lookup, item CCc1cc(CN2CC3(C2)CN(S(C)(=O)=O)C3)ncc1-c1ccc(C(O)(C(F)(F)F)C(F)(F)F)cc1
< 50 nM

Fill in the blank: the reported IC50 of CC(C)c1cc(CN2CC3(C2)CN(S(C)(=O)=O)C3)c(F)cc1-c1ccc(C(O)(C(F)(F)F)C(F)(F)F)cc1 is ____.
< 50 nM

Quick one: IC50 for CCc1cc(CN2CCC3(CCNC3=O)C2)ccc1-c1ccc(C(O)(C(F)(F)F)C(F)(F)F)cc1 (stereo not shown) ?
50 to 250 nM

For the molecule shown here, CCc1cc(CN2CC(CN(C)S(C)(=O)=O)C2)ccc1-c1ccc(C(O)(C(F)(F)F)C(F)(F)F)cc1 , give the reported IC50.
> 250 nM

Any idea what IC50 was measured for CCc1cc(CN2CCC(CS(C)(=O)=O)CC2)ccc1-c1ccc(C(O)(C(F)(F)F)C(F)(F)F)cc1 ?
50 to 250 nM

###

Molecular target: RORγt (Homo sapiens (Human))
Assay: Gal4 ligand binding assay (RORγt Gal fusion luciferase reporter assay in HEK293T cells)
Settings: RORγt inverse agonists in RORγt Gal fusion assay
READOUT_KIND: IC50

# input molecule: CS(=O)(=O)N1CC2(CN(Cc3ccc(-c4ccc(C(O)(C(F)(F)F)C(F)(F)F)cc4)cc3O)C2)C1 ; wanted: its IC50
50 to 250 nM

Which IC50 value belongs to CCc1cc(CN2CC3(C2)CN(S(C)(=O)=O)C3)c(F)cc1-c1ccc(C(O)(C(F)(F)F)C(F)(F)F)cc1Cl ?
< 50 nM

GET /values?readout=IC50&item= CCc1nc(CN2CC3(C2)CN(S(C)(=O)=O)C3)ccc1-c1ccc(C(O)(C(F)(F)F)C(F)(F)F)cc1C
> 250 nM

Consider the molecule CC(C)c1c(F)c(CN2CC3(C2)CN(S(C)(=O)=O)C3)cc(F)c1-c1ccc(C(O)(C(F)(F)F)C(F)(F)F)cc1Cl and give its measured IC50.
< 50 nM

Which IC50 reading was recorded for the molecule CS(=O)(=O)N1CC2(CN(Cc3cc(F)c(-c4ccc(C(O)(C(F)(F)F)C(F)(F)F)cc4)c(C4CC4)c3F)C2)C1 ?
< 50 nM

Sample CS(=O)(=O)N1CC2(CN(Cc3ccc(-c4ccc(C(O)(C(F)(F)F)C(F)(F)F)cc4)c(C(F)(F)F)c3)C2)C1 — what was its IC50?
50 to 250 nM

Fill in: IC50 of Cc1cc(C(O)(C(F)(F)F)C(F)(F)F)ccc1-c1c(F)cc(CN2CC3(C2)CN(S(C)(=O)=O)C3)c(F)c1C(C)C is ___
< 50 nM

Quick one: IC50 of CCc1cc(CN2CC3(C2)CN(C(=O)OC)C3)ccc1-c1ccc(C(O)(C(F)(F)F)C(F)(F)F)cc1 ?
50 to 250 nM

I would be grateful if you could share the reported IC50 for CCc1cc(CN2CC3(C2)CN(S(C)(=O)=O)C3)ccc1-c1ccc(C(O)(C(F)(F)F)C(F)(F)F)cc1C .
< 50 nM

Requested field: IC50. Item: CCc1cc(C(O)(C(F)(F)F)C(F)(F)F)ccc1-c1c(F)cc(CN2CC3(C2)CN(S(C)(=O)=O)C3)c(F)c1C(C)C
< 50 nM

Any idea what its IC50 is? The molecule is Cc1cc(C(O)(C(F)(F)F)C(F)(F)F)ccc1-c1c(F)cc(CN2CC3(C2)CN(S(C)(=O)=O)C3)c(F)c1C1CC1
< 50 nM

###

Molecular target: UniProt:P51449
Assay: Gal4 ligand binding assay (RORγt Gal fusion luciferase reporter assay in HEK293T cells)
Conditions: RORγt inverse agonists in RORγt Gal fusion assay
READOUT_KIND: IC50

Sample records with IC50:
CS(=O)(=O)N1CC2(CN(Cc3ccc(-c4ccc(C(O)(C(F)(F)F)C(F)(F)F)cc4)c(Cl)c3)C2)C1; > 250 nM
CC(C)c1c(F)c(CN2CC3(C2)CN(S(C)(=O)=O)C3)cc(F)c1-c1ccc(C(O)(C(F)(F)F)C(F)(F)F)cc1F; < 50 nM
CCc1cc(CN2CCC3(CCN(S(C)(=O)=O)C3)C2)ccc1-c1ccc(C(O)(C(F)(F)F)C(F)(F)F)cc1 (centres unmarked); < 50 nM
CC(C)c1cc(CN2CC3(C2)CN(S(C)(=O)=O)C3)c(F)cc1-c1ccc(C(O)(C(F)(F)F)C(F)(F)F)cc1F; < 50 nM
CCc1c(F)c(CN2CC3(C2)CN(S(C)(=O)=O)C3)cc(F)c1-c1ccc(C(O)(C(F)(F)F)C(F)(F)F)cc1Cl; < 50 nM

What measured IC50 is associated with CN(C)C(=O)c1cc(CN2CC3(C2)CN(S(C)(=O)=O)C3)ccc1-c1ccc(C(O)(C(F)(F)F)C(F)(F)F)cc1 on UniProt:P51449?
> 250 nM

Query IC50 on UniProt:P51449 for CCc1cc(CN2CC3(C2)C[S+]([O-])C3)ccc1-c1ccc(C(O)(C(F)(F)F)C(F)(F)F)cc1
50 to 250 nM

// lookup IC50 | system=UniProt:P51449 | key= CS(=O)(=O)N1CC2(CN(Cc3ccc(-c4ccc(C(O)(C(F)(F)F)C(F)(F)F)cc4)c(Br)c3)C2)C1
50 to 250 nM

# get_value(readout= IC50, system= UniProt:P51449) for CCc1cc(CN2CCC3(CNC(=O)C3)C2)ccc1-c1ccc(C(O)(C(F)(F)F)C(F)(F)F)cc1 (centres unmarked)
50 to 250 nM

Provide value of IC50 for this record tested with UniProt:P51449: CCc1cc(CN2CC3(C2)CN(S(=O)(=O)C2CC2)C3)ccc1-c1ccc(C(O)(C(F)(F)F)C(F)(F)F)cc1
50 to 250 nM

Record CCc1cc(CN2CC3(CCN(S(C)(=O)=O)C3)C2)ccc1-c1ccc(C(O)(C(F)(F)F)C(F)(F)F)cc1 : what is its IC50 with UniProt:P51449?
50 to 250 nM

Tell me reported IC50 for CCc1cc(CN2CCC3(CC2)CN(S(C)(=O)=O)C3)ccc1-c1ccc(C(O)(C(F)(F)F)C(F)(F)F)cc1 , tested with UniProt:P51449.
< 50 nM

Any idea what IC50 came out for CCc1cc(CN2CCC3(C2)CN(S(C)(=O)=O)C3)ccc1-c1ccc(C(O)(C(F)(F)F)C(F)(F)F)cc1 on UniProt:P51449?
< 50 nM

Requested read-out IC50, target or system UniProt:P51449, entry CS(=O)(=O)N1CC2(CN(Cc3cc(F)c(-c4ccc(C(O)(C(F)(F)F)C(F)(F)F)cc4F)c(C4CC4)c3F)C2)C1
< 50 nM
